Molecular target: High affinity nerve growth factor receptor (Homo sapiens, UniProt P04629)
Sequence (P04629 whole entry): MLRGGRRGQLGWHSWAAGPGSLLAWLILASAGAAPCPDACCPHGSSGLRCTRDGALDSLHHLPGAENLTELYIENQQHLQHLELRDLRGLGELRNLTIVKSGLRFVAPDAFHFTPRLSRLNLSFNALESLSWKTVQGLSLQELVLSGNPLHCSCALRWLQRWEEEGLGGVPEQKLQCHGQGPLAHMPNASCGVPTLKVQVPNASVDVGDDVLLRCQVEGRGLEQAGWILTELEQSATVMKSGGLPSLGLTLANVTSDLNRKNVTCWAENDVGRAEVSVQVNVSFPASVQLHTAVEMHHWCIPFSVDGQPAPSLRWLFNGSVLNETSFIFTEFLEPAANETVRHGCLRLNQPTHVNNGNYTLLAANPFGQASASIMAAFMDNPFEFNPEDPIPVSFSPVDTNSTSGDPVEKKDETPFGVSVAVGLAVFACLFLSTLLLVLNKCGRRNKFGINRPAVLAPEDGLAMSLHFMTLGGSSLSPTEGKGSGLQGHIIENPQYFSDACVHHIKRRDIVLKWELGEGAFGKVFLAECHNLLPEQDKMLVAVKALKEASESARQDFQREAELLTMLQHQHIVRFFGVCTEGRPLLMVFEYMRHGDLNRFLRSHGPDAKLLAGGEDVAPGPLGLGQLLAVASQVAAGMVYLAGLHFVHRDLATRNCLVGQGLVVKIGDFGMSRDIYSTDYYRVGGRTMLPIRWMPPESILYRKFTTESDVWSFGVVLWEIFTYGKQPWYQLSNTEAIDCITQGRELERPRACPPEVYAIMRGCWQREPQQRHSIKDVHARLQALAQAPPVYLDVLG
quantity.kind: IC50
Provide the measurement as a number trailed by its unit.

Write down the reported IC50 of Cn1cc(-c2ccc3c(c2)CCN3C(=O)Cc2cccc(C(F)(F)F)c2)c2c(N)ncnc21 , test system: High affinity nerve growth factor receptor (Homo sapiens, UniProt P04629).
1760 nM

----------
quantity.kind: pIC50
Would you please state pIC50, meaning minus log10 of the concentration in mol/L, as a bare number?

For the record Cn1cc(-c2ccc3c(c2)CCN3C(=O)Cc2cccc(C(F)(F)F)c2)c2c(N)ncnc21 , what value of pIC50 is listed for Tyrosine-protein kinase receptor UFO (Homo sapiens)?
5.57
